tested on: Wolbachia pipientis; test: Anti-Wolbachia Cell-Based Screen; assay type: functional; set-up: scale not given: in the data most compounds retested in dose-response had high values; details: 5 µM
The campaign covered roughly 48,000 compounds. About 13,000 (27%) showed an effect of 50% or more. Some of the results follow.
Attribute measured: Percent Effect (%)
Write the number in % without appending the unit.

// returns reported Percent Effect for input CNS(=O)(=O)CC(=O)NC(C)Cc1ccc(Br)cc1 (stereo unspecified) -6.603

Looking for the measured Percent Effect of "COc1ccccc1OCC(=O)N1CCN(Cc2noc(C)n2)CC1" , can you help? 5.502

Fill blank: measured Percent Effect of the compound COc1cccc(OCC(=O)N2CCCSCC2CN2CCOCC2)c1 (stereo unspecified) is ____. 8.311

Need Percent Effect, item "CCN1CCN(C(=O)COc2ccc(CN(C)S(C)(=O)=O)cc2)CC1" -1.123

What value of Percent Effect has been recorded for this entry: "CC(C)CN1CC[C@@H]2[C@@H]1CCN2C(=O)N(C)C.O=C(O)C(F)(F)F" -11.1

Reported Percent Effect for Cc1n[nH]c2c1C(c1ccc(O)c(Cl)c1)SCC(=O)N2 (stereo unspecified) : what is it? 5.211

What value of Percent Effect has been recorded for this entry: COC(=O)C(CO)NC(=O)c1cn(Cc2ccccc2F)nn1 (stereo unspecified) -17.52

What value of Percent Effect has been recorded for this entry: CC[C@H](C)[C@@H](CO)NC(C)Cc1ccc(Cl)cc1 (stereo partly specified) 125.5

So what's the measured Percent Effect for this one? "O=C(COc1cccc(F)c1)N1C[C@@H](O)[C@H](N2CCOCC2)C1" 106.1

# get_value(readout='Percent Effect', item= Cc1n[nH]c2c1C(c1ccc3c(c1)OCO3)SCC(=O)N2 (stereo unspecified) ) 118.8

// query Percent Effect value for entry CC[C@H](C)[C@@H](CO)NC(C)Cc1ccc(C)cc1 (stereo partly specified) 96.84

====

Assignment: determine reported Percent Effect for the given molecules.
test system: Wolbachia pipientis; test: Anti-Wolbachia Cell-Based Screen; format: functional; set-up: scale not given: in the data most compounds retested in dose-response had high values; details: 5 µM
About 13,000 (27%) of roughly 48,000 compounds showed an effect of 50% or more. The list shows a part of the results.
The reply must contain the numeric value and, after it, the unit.

Which measured Percent Effect value corresponds to Cn1nc(CN2CCCCC(N)C2)c2c(Cl)cccc21 (stereo not drawn) ? -4.304%

So what does the record say about Percent Effect for Fc1cccc(CN2CCC3(CCN3c3ncccn3)C2)c1.O=C(O)C(F)(F)F (stereo not drawn) ? 74.85%

Fill in: Percent Effect of "Cc1cc(CN2C[C@H]3CCC[C@@]3(COCC3CCOCC3)C2)no1.O=C(O)C(F)(F)F" is ___ 1.109%

# query: Percent Effect of entry "Fc1cnc(N2C[C@H]3CN(Cc4cccc(F)c4)C[C@H]3C2)nc1.O=C(O)C(F)(F)F.O=C(O)C(F)(F)F" 5.307%

# input molecule: "O=C(O)C(F)(F)F.O=C(O)C(F)(F)F.c1cncc(OC[C@@]23CCC[C@@H]2CN(C2CCOCC2)C3)c1" ; wanted: its Percent Effect 96.07%

Entry "O=C(O)C(F)(F)F.c1cnc(N2CCO[C@@H]3CN(Cc4ccoc4)C[C@@H]3C2)nc1" has what Percent Effect? 98.59%

Which Percent Effect reading was recorded for the molecule "C[C@@H]1CN(C2CCOCC2)C[C@]12CCN(c1cccnc1)C2=O.O=C(O)C(F)(F)F.O=C(O)C(F)(F)F" ? 17.85%

What measured Percent Effect goes with "Cc1ccc(CN2C[C@@H]3CN(c4ncccn4)C[C@@H]3C2)cc1.O=C(O)C(F)(F)F" ? 6.326%

====

Give Percent Effect for every item shown.
test system: Wolbachia pipientis; assay: Anti-Wolbachia Cell-Based Screen; assay type: functional; design: scale not given: in the data most compounds retested in dose-response had high values; conditions: 5 µM
Among all 48,000 compounds or so, about 13,000 (27%) showed an effect of 50% or more. The list shows a part of the results.
# output: bare number, implied unit %

Quick check: Percent Effect of O=C(O)C(F)(F)F.O=C(O)C(F)(F)F.O=C1N(c2ccsc2)CCC12CCCN(Cc1cccnc1)C2 (stereo unspecified) ? 4.008

Param item = "CN(C)c1nccc(N2CCO[C@H]3CN(Cc4ccco4)C[C@H]32)n1" ; retrieve measured Percent Effect. 68.55

Recorded Percent Effect for "CNC(=O)CN1CC[C@H]2CN(C(=O)c3ccc(C)nc3)C[C@H]2C1.O=C(O)C(F)(F)F" , please? -24.07

// lookup Percent Effect for "CC(C)c1cc(CN2CCNCC2)no1" 116.8

Percent Effect lookup needed for "Cc1nc(CN2C[C@@H]3CN(C(=O)c4ccncc4)C[C@@H]3C2)cs1" , thanks. 103.2

Can you share its Percent Effect? I mean this molecule: "CN(c1ncccc1C#N)C1CCN(CCc2ccccn2)CC1" 3.648

What value of measured Percent Effect is listed for "COCCN1C[C@@H]2COC[C@@H](CC(=O)NCc3cccnc3)[C@@H]2C1.O=C(O)C(F)(F)F.O=C(O)C(F)(F)F" ? 24.5

Percent Effect for "Cn1ccnc1CN1C[C@@H]2OCCN(c3ncccn3)[C@@H]2C1" ? 7.273

Percent Effect for "CCN1C[C@@H]2CN(Cc3cccs3)C[C@@H]2C1=O.O=C(O)C(F)(F)F" ? -3.908

I'd like to know its Percent Effect. The molecule in question is "COCCN1C[C@@H]2OCCN(c3ccnc(N(C)C)n3)[C@@H]2C1" 104.4

Look up Percent Effect for this molecule: COc1cccc2c(=O)n(C3CCCNC3)cnc12 (stereo unspecified) -0.6392

Quick one: Percent Effect of "Cc1nc(CN2CCO[C@H]3CN(C(=O)c4ccncc4)C[C@H]32)cs1" ? 6.304

Which Percent Effect value belongs to "Cc1nc(CN2CCC23CCN(C(=O)c2ccncc2)CC3)cs1" ? -6.735

Would you kindly share the measured Percent Effect for CCc1cc(CN(C)C(=O)CN2CC(Cc3ccccc3)CC2=O)on1 (stereo unspecified) ? 4.825

Tell me the measured Percent Effect of "O=C(C1CCCCC1)N1C[C@@H]2CCNC[C@@H]21" , please. -27.82

Report Percent Effect for "Cc1cccc(CN2C[C@@H]3OCCN(S(=O)(=O)N(C)C)[C@@H]3C2)n1" please. 2.928

Please look up its Percent Effect: "CN1C(=O)C2(CCN(Cc3cccnc3)CC2)c2cccc(F)c21.Cl" 9.194

Value lookup for Percent Effect; key = COc1ccccc1CC(C)N(C)CCS(C)(=O)=O (stereo unspecified) -4.195

Item under review: "CCCc1nnc2sc(C3CCN(CC)CC3)nn12" . Reported Percent Effect? 103.4

Look up Percent Effect: "Oc1cccc2ccc(CN3CCC4(CCNCC4)C3)nc12" 2.778

Reported Percent Effect, molecule "Cc1cc(CN2C[C@@H]3COC[C@]3(CNC(=O)N3CCCC3)C2)no1.O=C(O)C(F)(F)F" : ____ -10.59

====

system: Wolbachia pipientis; assay: Anti-Wolbachia Cell-Based Screen; type: functional; design: scale not given: in the data most compounds retested in dose-response had high values; settings: 5 µM
Out of some 48,000 compounds screened, about 13,000 (27%) showed an effect of 50% or more. The list shows a part of the results.
Output Met for Percent Effect not less than 10%; output Not met otherwise.

Decide: is the reported value of Percent Effect for "CCNC(=O)c1cn(C(C)(C)C)c2ncccc12" equal to or greater than 10%? Met

Could you tell me if the measured Percent Effect of CCOC(C)c1noc(CN(C)C(=O)C2C(C)(C)C2(C)C)n1 (stereo not drawn) reaches 10% or more? Met

Say whether "Cc1ccc(-c2ccnc3cc(CC(=O)N4CCN(C)CC4)nn23)cc1" shows Percent Effect of 10% or more. Met

Test whether the compound "CC(C)(C)n1cc(C(=O)NCCN2CCOCC2)c2cccnc21" records Percent Effect of 10% or higher. Met

Test whether the compound "c1c[nH]c2nc(C3CCNCC3)nc-2c1" records Percent Effect of 10% or higher. Met

// inclusive: Percent Effect at least 10%? input: "Cc1nc(CN2CCC3(C2)CN(C(=O)c2conc2C)C3)cs1" Met

Confirm if Percent Effect reported for the compound CCOC(=O)N1CCCC2(CCCNC2)C1.Cl (stereo not drawn) is 10% or above. Not met

Form field: Percent Effect at least 10%? Entry: "CC(C)(C)n1cc(C2=CCN(CCNC(=O)c3ccccc3)CC2)cn1" Not met

Is reported Percent Effect greater than or equal to 10% here: Cl.FC(F)(F)c1nc(C2CCCNC2)no1 (stereo not drawn) Met

Say whether "CCCNC(=O)c1cn(C(C)(C)C)c2ncccc12" shows Percent Effect of 10% or more. Met

Determine whether measured Percent Effect meets or exceeds 10% for "Cc1cnc(N2CCC3(CC2)COCCN(C(C)C)C3)nc1.O=C(O)C(F)(F)F" Not met

Confirm if Percent Effect reported for the compound "Cc1ncc(CC(=O)N2C[C@@H]3CC[C@H](C2)N(CC2CCC2)C3)c(=O)[nH]1" is 10% or above. Not met

Kindly determine if Percent Effect recorded for "CC(C)=CCN1C[C@H]2CC[C@@H]1CN(C(=O)c1c[nH]c(=O)c(Cl)c1)C2" is above or exactly 10%. Not met

Record "O=C(N1CCCC1)N1C[C@H]2CC[C@@H]1CN(Cc1ccncc1)C2" ; criterion: Percent Effect no lower than 10%. Met? Not met

Entry "Cc1noc(C)c1CN1C(=O)[C@H]2CC[C@@H]1CN(Cc1cscn1)C2" : is its Percent Effect no less than 10%? Not met

Decide: is the reported value of Percent Effect for "CC(C)=CCN1C[C@H]2CC[C@@H]1CN(C(=O)CSc1ccncc1)C2" equal to or greater than 10%? Met

Determine whether measured Percent Effect meets or exceeds 10% for "CNC(=O)[C@H]1C[C@@H]2CN(C(=O)c3cncc(C)c3)C[C@@H]2N1C" Not met

Confirm if Percent Effect reported for the compound "CN1CCC2(CC1)C(=O)N(c1cccnc1)c1ccc(F)cc12.Cl" is 10% or above. Not met

Given OCCN1CCC(F)(F)C2(CCN(c3cccnc3)C2)C1 (stereo not drawn) , state whether its Percent Effect is at least 10%. Met

Entry FC1(F)CCNCC12CCN(c1cccnc1)C2.O=C(O)C(F)(F)F.O=C(O)C(F)(F)F (stereo not drawn) : is its Percent Effect no less than 10%? Not met

Exam item: decide whether the reported Percent Effect for CN(C)C(=O)C1CCC2(CCNCC2)C1.O=C(O)C(F)(F)F (stereo not drawn) is at least 10%. Not met

Determine whether measured Percent Effect meets or exceeds 10% for "CCCNC1(c2ccc(Cl)cc2)CCOCC1" Not met

Check the entry CC(C)CN1C(=O)C2(CCCC2)NC1c1cccnc1 (stereo not drawn) : does Percent Effect equal or exceed 10%? Not met

Check if Percent Effect >= 10% (inclusive). Item: O=C(c1ccc(C2CCCN2)s1)N1CCN2CCC1CC2 (stereo not drawn) Met

Test whether the compound NC(=O)CC1CC2(CCNCC2)c2cc(F)ccc21.O=C(O)C(F)(F)F (stereo not drawn) records Percent Effect of 10% or higher. Met

Could you verify whether the entry "COCC(=O)NC[C@H]1C[C@@H]2CCN1C[C@@H]2CN(C)c1ccccc1" shows Percent Effect of no less than 10%? Not met

Please check the record "O=C(c1c[nH]c(=O)c(Cl)c1)N1C[C@@H]2CC[C@H](C1)N(CC1CCC1)C2" and state if its Percent Effect is at or above 10%. Met

Reported Percent Effect at or above 10%? COC(=O)CCC(=O)NC(C)Cc1ccccc1Br (stereo not drawn) Not met

# check: Percent Effect of "CC(C)NC(=O)NC[C@H]1C[C@@H]2CCN1C[C@@H]2CN(C)c1ccccc1" is greater than or equal to 10% Not met

Answer whether Percent Effect of "Cc1ccnc(OC[C@@]23CCO[C@@H]2CCN(C2CCC2)C3)n1.O=C(O)C(F)(F)F" is greater than or equal to 10%. Not met

Check the entry Cc1ccc2c(c1)C1(CCNCC1)CC2NC(C)C.Cl.Cl (stereo not drawn) : does Percent Effect equal or exceed 10%? Not met

Exam item: decide whether the reported Percent Effect for "Cc1cc(CN2CC[C@H]3OCC[C@@]3(C(=O)N3CCOCC3)C2)no1" is at least 10%. Met

Would you say "CCCc1nc(N2CCCN3CCC[C@H]3C2)c2cnn(C)c2n1" shows Percent Effect at minimum 10%? Met

Assess whether reported Percent Effect for "Cl.Cl.Cn1ccc(CN2CCOCC23CCNCC3)n1" sits at 10% or higher. Not met

Answer whether Percent Effect of "CCCN(CCN(C)C)C(=O)Cc1cn2ccsc2n1" is greater than or equal to 10%. Not met

Is Percent Effect for Cc1ccc2c(c1)C1(CCNCC1)CC2NC1CC1.Cl.Cl (stereo not drawn) at or above 10%? Met

Decide: Percent Effect of "CCCN1CCN(C(=O)c2ccc(Cl)cn2)[C@H]2CS(=O)(=O)C[C@H]21" >= 10%? Not met

For this compound, is measured Percent Effect 10% or higher? "O=C(O)C(F)(F)F.O=C(O)C(F)(F)F.OCCN1CC2(CCN(c3ccccc3)C2)C1" Not met

// inclusive: Percent Effect at least 10%? input: "CN(CCc1ccccc1)Cc1nc2c(cnn2C)c(=O)[nH]1" Met

Kindly determine if Percent Effect recorded for O=C(O)C(F)(F)F.O=C(O)C(F)(F)F.O=C(O)CN1CCC(F)(F)C2(CCN(c3ccccn3)C2)C1 (stereo not drawn) is above or exactly 10%. Not met

Form field: Percent Effect at least 10%? Entry: CCCc1nc(N2CCCC3(CCNC3)C2)c2cnn(C)c2n1 (stereo not drawn) Not met

Percent Effect >= 10% for Cn1ncc2c(N3CCCC4(CCNC4)C3)nc(C(C)(C)C)nc21 (stereo not drawn) ? Not met
